Where do these numbers come from? They come from PubChem BioAssay (NCATS).

Tested on: CRL-7250
ASSAY_SUMMARY: Cytotoxic Profiling of Annotated Libraries Using Quantitative High-Throughput Screening (AID 1296008); note: nearly all actives have a fitted effect of over 60% in size
STATED_CONDITIONS: Five cell lines viability, CellTiter-Glo ATP luminescence, 48-72 h
Inconclusive results are not listed. Active and inactive are the calls of the source. Calls come from the whole dose curve; as a rule, active = well fitted inhibition curve with a large enough effect; inconclusive = small, poorly fitted or top-dose-only effect; inactive = flat fitted curve, though single readings scatter.
Classes used: true = active, false = inactive

COMPOUND	CLASS_NAME
Cc1ccc(-c2ccc3c(ccc4sc5c(c43)NC[C@@H](C)NC5=O)n2)cn1	false
Cc1cccc(Oc2cnc(=O)[nH]c2)c1	false
C[C@@H]1O[C@@H](O[C@H]2[C@H](OC(=O)[C@]34CCC(C)(C)C[C@H]3C3=CCC5[C@@]6(C)C[C@H](O)[C@H](O[C@@H]7O[C@H](CO)[C@@H](O[C@H]8OC[C@](O)(CO)[C@H]8O)[C@H](O)[C@H]7O)[C@@](C)(CO)C6[C@H](O)C[C@@]5(C)[C@]3(C)C[C@H]4O)OC[C@H](O)[C@@H]2O)[C@H](O)[C@H](O)[C@H]1O[C@@H]1OC[C@@H](O)[C@H](O[C@@H]2OC[C@](O)(CO)[C@H]2O)[C@H]1O (stereo partly specified)	false
CN[C@H](C(=O)N[C@H](C(=O)N(C)[C@H](/C=C(\C)C(=O)O)C(C)C)C(C)(C)C)C(C)(C)c1ccccc1	true
C=C1C[C@]23C[C@H]1CC[C@H]2[C@]1(C)CCC[C@@](C)(C(=O)O)[C@H]1[C@@H]3C(=O)O	false
Cn1c(=O)n(-c2ccc(C(C)(C)C#N)cc2)c2c3cc(C#Cc4cccnc4)ccc3ncc21	true
O=C1NC(=O)C(c2cn3c4c(cccc24)CCC3)C1c1c[nH]c2ccccc12 (stereo unspecified)	true
COc1c2c(c(C)c3c1C(=O)OC3)OC1(C)CC(O)C34OC(OC)(OC3(C)C)C(O)CC4(C)C1C2 (stereo unspecified)	false
CC1=C(C)C(=O)OC(C(C)C2CCC3C4C5OC5C5(O)CC(OC6OC(CO)C(OC7OC(C)C(O)C(O)C7O)C(O)C6O)CC(O)C5(C)C4CCC23C)C1 (stereo unspecified)	false
C=C(C)C1CCC2(C(=O)O)CCC3(C(=O)O)C(CCC4C5(C)CCC(O)C(C)(C(=O)O)C5CCC43C)C12 (stereo unspecified)	false
C[C@@H]1O[C@@H](O[C@@H]2[C@@H](O)[C@H](O[C@H]3[C@H](O[C@H]4CC[C@@]5(C)C(CC[C@]6(C)C5CC=C5[C@@H]7CC(C)(C)CC[C@]7(C(=O)O[C@@H]7O[C@H](CO)[C@@H](O)[C@H](O)[C@H]7O[C@@H]7O[C@@H](C)[C@H](O[C@@H]8O[C@@H](C)[C@H](O)[C@@H](O)[C@H]8O)[C@@H](O)[C@H]7O)CC[C@]56C)[C@@]4(C)CO)O[C@H](C(=O)O)[C@@H](O)[C@@H]3O)O[C@H](CO)[C@H]2O)[C@H](O)[C@H](O)[C@H]1O (stereo partly specified)	false

----------
ASSAY_SUMMARY: P-glycoprotein substrates identified in KB-8-5-11 adenocarcinoma cell line, qHTS therapeutic library screen (AID 1346987); note: nearly all actives have a fitted effect of over 65% in size
STATED_CONDITIONS: KB-8-5-11 (P-gp overexpressing) viability, CellTiter-Glo, 72 h; series mostly up to 44.5 µM
Inconclusive results are not listed. Calls of active or inactive are those of the source. Calls follow the shape of the dose curve; as a rule, active = well fitted inhibition curve with a large enough effect; inconclusive = small, poorly fitted or top-dose-only effect; inactive = flat fitted curve, though single readings scatter.
OBSERVATION_TYPE: outcome

                                   compound  observation_type    result
0  O=C(/C=C/c1ccc(O)cc1)OC1[C@H](O)CC(O)(C(=O)O)C[C@H]1O (stereo partly drawn)           outcome  inactive
1  COc1ccc(/C=C\C(=O)O)c(O[C@@H]2O[C@H](CO)[C@@H](O)[C@H](O)[C@H]2O)c1           outcome  inactive
2    C/C1=C\CCC2=C[C@@H](OC2=O)c2c(C)coc2C1           outcome  inactive

----------
Tested on: Tov-21-G
ASSAY_SUMMARY: Primary qHTS to identify gynecologic anti-cancer compounds using libraries of approved drugs and bioactive compounds (AID 1345084); note: nearly all actives have a fitted effect of over 55% in size
STATED_CONDITIONS: Gynecologic cancer cell panel viability, ATPlite luminescence, 48 h; series mostly up to 57.5 µM
Inconclusive results are not listed. Active and inactive are the calls of the source. Calls follow the shape of the dose curve; as a rule, active = well fitted cell-killing curve with a large enough effect; inconclusive = small, poorly fitted or top-dose-only effect, or effect the other way; inactive = flat fitted curve, though single readings scatter. Where a SMILES comes first, the peptide text is derived from it. Bridges are numbered along the chain shown (N, C = ends). [ ]: non-standard residue; d: D form. NMeY = CN[CH](Cc1ccc(O)cc1)C(=O)O
Classes used: 1 = active, 0 = inactive

MOLECULE	SUBJECT_OF_TEST	CLASS_NAME
CCCC(=O)C1CCN(c2ncnc3c2CN(C(=O)c2ccc(-c4ccccc4)cc2)CC3)CC1	Tov-21-G	0
CCC(C)C1NC(=O)C2CCCN2C(=O)C(NC(C)=O)C(C)OC(=O)C(Cc2ccc(OC)cc2)N(C)C(=O)C2CCCN2C(=O)C(C(C)C)NC1=O (centres undefined) (Ac-TPIVP[NMeY](Me); ester 1-C; configuration not given here)	Tov-21-G	0
CC1=C(COC2OC(CO)C(O)C(O)C2O)C(C(CO)C(=O)O)CC1 (centres undefined)	Tov-21-G	0
Cn1cc(S(=O)(=O)c2ccc(Cl)cc2)c2cccc(N3CCNCC3)c21	Tov-21-G	1

----------
System: OV90
ASSAY_SUMMARY: Primary qHTS to identify gynecologic anti-cancer compounds using libraries of approved drugs and bioactive compounds (AID 1345084); note: nearly all actives have a fitted effect of over 55% in size; for activity change, negative = cytotoxicity: % is set by controls: 0 for no effect and ±100 for the full control effect
STATED_CONDITIONS: Gynecologic cancer cell panel viability, ATPlite luminescence, 48 h; series mostly up to 57.5 µM
Results filed as inconclusive are left out. Active and inactive are the calls of the source. Calls come from the whole dose curve; as a rule, active = well fitted cell-killing curve with a large enough effect; inconclusive = small, poorly fitted or top-dose-only effect, or effect the other way; inactive = flat fitted curve, though single readings scatter.

MOLECULE	activity change, negative = cytotoxicity
O=C(O)c1cn(C2CC2)c2cc(N3C[C@@H]4C[C@H]3CN4)c(F)cc2c1=O	inactive
C[C@@H]1O[C@@H](O[C@H]2[C@H](OC(=O)[C@]34CCC(C)(C)C[C@H]3C3=CCC5[C@@]6(C)CC[C@H](O[C@@H]7O[C@H](C(=O)O)[C@@H](O)[C@H](O)[C@H]7O[C@@H]7O[C@H](CO)[C@H](O)[C@H](O)[C@H]7O)[C@@](C)(C=O)C6CC[C@@]5(C)[C@]3(C)C[C@H]4O)O[C@H](C)[C@H](O[C@@H]3O[C@H](C)[C@H](O)[C@H](O)[C@H]3O)[C@@H]2O)[C@H](O)[C@H](O)[C@H]1O[C@@H]1OC[C@@H](O)[C@H](O[C@@H]2O[C@H](CO)[C@@H](O)[C@H](O)[C@H]2O)[C@H]1O (stereo not given in full)	-26.3% [at 6.55 µM] (inactive)
CC1(C)CCC[C@@]2(C)C1[C@H](OC(=O)/C=C/C=C/C(=O)O)C=C1COC(=O)[C@@]12O (stereo not given in full)	inactive
COc1cc2c(cc1O)[C@H](c1ccc(O[C@@H]3O[C@H](CO)[C@@H](O)[C@H](O)[C@H]3O)c(OC)c1)[C@@H](CO)[C@](O)(CO)C2	inactive
CC(NC(=O)C(O)C(C)C)C(=O)NC1C(=O)N(C)CCc2ccccc21 (stereo not given)	inactive

----------
Test system: Nanoluciferase (engineered Oplophorus gracilirostris luciferase)
ASSAY_SUMMARY: Primary Nanoluciferase (NLuc) qHTS assay for identification of artifact compounds. (AID 1845222);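 note: NLuc secreted into diluted conditioned medium of S16 cells; 0% = DMSO and -100% = no enzyme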
STATED_CONDITIONS: NLuc-conditioned medium, Nano-Glo luminescence, 5 min; series mostly up to 54.1 µM
Calls of active or inactive are those of the source. Calls follow the shape of the dose curve; as a rule, active = well fitted inhibition curve with a large enough effect; inconclusive = small, poorly fitted or top-dose-only effect; inactive = flat fitted curve, though single readings scatter.
OBSERVATION_TYPE: activity, negative = inhibition

COMPOUND	RESULT
C/C(=C/CO)CC[C@@H]1[C@@](C)(O)CCC2C(C)(C)CCC[C@]21C (stereo partly drawn)	inactive
C=C(C)C1CCC2(C(=O)O)CCC3(C(=O)O)C(CCC4C5(C)CCC(O)C(C)(C(=O)O)C5CCC43C)C12 (stereo not drawn)	inactive
C=C1[C@@H]2CC[C@@H]3[C@@](CCC4C(C(=O)O)(C(=O)O)C[C@@H](O[C@@H]5O[C@H](CO)[C@@H](O)[C@H](O)[C@H]5OC(=O)CC(C)C)C[C@]43C)(C2)[C@H]1O (stereo partly drawn)	inactive
O=C(/C=C/c1cccc(S(=O)(=O)Nc2ccccc2)c1)NO	inactive
C=C(C(=O)O)[C@H]1C[C@]2(C)[C@@H](O)CC[C@]23O[C@H]1C[C@@H]3C	inactive
COC(=O)C1=CO[C@@H](O[C@@H]2O[C@H](CO)[C@@H](O)[C@H](O)[C@H]2O)[C@@H]2C(COC(C)=O)=C[C@H](O)[C@H]12	inactive
Cc1cc(=O)oc2c(C=O)c(O)ccc12	inactive
Cc1cc(Nc2ncc3cc(-c4c(Cl)cccc4Cl)c(=O)n(C)c3n2)ccc1F	inactive

----------
Test system: HEK293
ASSAY_SUMMARY: Cytotoxic Profiling of Annotated Libraries Using Quantitative High-Throughput Screening (AID 1296008); note: nearly all actives have a fitted effect of over 60% in size; for max response: % is set by controls: 0 for no effect and ±100 for the full control effect
STATED_CONDITIONS: Five cell lines viability, CellTiter-Glo ATP luminescence, 48-72 h; active compounds read low
Results filed as inconclusive are left out. Where a SMILES comes first, the peptide text is derived from it. The star is where a group is joined. AFC = O=c1cc(C(F)(F)F)c2ccc(N*)cc2o1

COMPOUND	SUBJECT_OF_TEST	max response (%)
COc1cc2oc(-c3ccc(O)cc3O)cc2c(OC)c1CC=C(C)C	HEK293	3
O=C(Nc1ccccc1-c1cn2c(CN3CCNCC3)csc2n1)c1ccc2ccccc2n1	HEK293	-4.98
COc1ccc(C2=N[C@@H](c3ccc(Cl)cc3)[C@@H](c3ccc(Cl)cc3)N2C(=O)N2CCNC(=O)C2)c(OC(C)C)c1	HEK293	-29
CC(=O)N[C@@H](Cc1c[nH]c2ccccc12)C(=O)N[C@@H](CCC(=O)O)C(=O)N[C@@H](Cc1cnc[nH]1)C(=O)N[C@@H](CC(=O)O)C(=O)Nc1ccc2c(C(F)(F)F)cc(=O)oc2c1 (Ac-WEHD-{AFC})	HEK293	-1.72
CCC(C)C(=O)O[C@H]1CCC=C2C=C[C@H](C)[C@H](CC[C@@H](O)C[C@@H](O)CC(=O)O)[C@H]21 (stereo not given in full)	HEK293	0.832
